The reported numbers originate from patent US6593462B2.

# System: β1,2-xylosyltransferase
# test: Solubilization of xylosyltransferase from microsomes by detergents
# Format: biochemical, soybean
# details: detergent 1%; protein 10 mg/ml
readout kind: Xylose Transferred to Acceptor (cpm), Particulate Suspension

Known results for molecules:
- C[C@H](CCC(=O)NCCC[N+](C)(C)CCCS(=O)(=O)[O-])[C@H]1CC[C@H]2[C@@H]3[C@H](O)C[C@@H]4C[C@H](O)CC[C@]4(C)[C@H]3C[C@H](O)[C@]12C: 2168 cpm
- C[C@H](CCC(=O)NCCS(=O)(=O)O)[C@H]1CC[C@H]2[C@@H]3[C@H](O)C[C@@H]4C[C@H](O)CC[C@]4(C)[C@H]3C[C@H](O)[C@]12C [Taurocholoate]: 1570 cpm
- CCCCCCCCO[C@@H]1O[C@H](CO)[C@@H](O)[C@H](O)[C@H]1O [Octylglucoside]: 2395 cpm

Entry CCCCCCCCCCCCCCCC[n+]1ccccc1.[Cl-] : reported Xylose Transferred to Acceptor (cpm), Particulate Suspension = ?
1341 cpm

----------
# Test system: β1,2-xylosyltransferase
# test: Specificity of nucleoside diphosphate sugar donor for xylosyltransferase
# Type: biochemical, soybean
# details: radioactive sugar nucleotide 20,000 cpm, 200 μM; asialo-agalactotransferrin glycopeptide acceptor; about 20 ng protein; 1 hour at 37°
# From the text: The substrate specificity of the xylosyltransferase for the nucleoside diphosphate sugar donor was also examined, using a variety of radiolabeled sugar nucleotides, as presented in Table 4. Each of these substrates was adjusted to have the same specific activity, and they were compared to each other at that activity. […]
Measured cpm incorporated into oligosaccharide, Purified Enzyme, listed per entry for reference.
Give the value in cpm but do not write cpm after it.

Known results for compounds:
* Nc1nc2c(ncn2[C@@H]2O[C@H](COP(=O)(O)OP(=O)(O)O[C@H]3O[C@H](CO)[C@@H](O)[C@H](O)[C@@H]3O)[C@@H](O)[C@H]2O)c(=O)[nH]1 [GDP-mannose] | 59
* O=c1ccn([C@@H]2O[C@H](COP(=O)(O)OP(=O)(O)O[C@H]3OC[C@@H](O)[C@H](O)[C@H]3O)[C@@H](O)[C@H]2O)c(=O)[nH]1 [UDP-xylose] | 2597
* C[C@@H]1O[C@H](OP(=O)(O)OP(=O)(O)OC[C@H]2O[C@@H](n3cnc4c(=O)[nH]c(N)nc43)[C@H](O)[C@@H]2O)[C@@H](O)[C@H](O)[C@@H]1O [GDP-fucose] | 142

Entry CC(=O)N[C@H]1[C@@H](OP(=O)(O)OP(=O)(O)OC[C@H]2O[C@@H](n3ccc(=O)[nH]c3=O)[C@H](O)[C@@H]2O)O[C@H](CO)[C@@H](O)[C@@H]1O [UDP-GlcNAc] : reported cpm incorporated into oligosaccharide, Purified Enzyme = ?
128

Further, for CC(=O)N[C@H]1[C@@H](OP(=O)(O)OP(=O)(O)OC[C@H]2O[C@@H](n3ccc(=O)[nH]c3=O)[C@H](O)[C@@H]2O)O[C@H](CO)[C@H](O)[C@@H]1O [UDP-GalNAc] ?
63

----------
# Test system: β1,2-xylosyltransferase
# test: Specificity of nucleoside diphosphate sugar donor for xylosyltransferase
# Type: biochemical, soybean
# details: radioactive sugar nucleotide 20,000 cpm, 200 μM; asialo-agalactotransferrin glycopeptide acceptor; 1 hour at 37°
# Excerpt: The substrate specificity of the xylosyltransferase for the nucleoside diphosphate sugar donor was also examined, using a variety of radiolabeled sugar nucleotides, as presented in Table 4. Each of these substrates was adjusted to have the same specific activity, and they were compared to each other at that activity. […]
readout kind: cpm incorporated into oligosaccharide, Particulate Enzyme (cpm)
Give the value in cpm but do not write cpm after it.

Known results for molecules:
* Nc1nc2c(ncn2[C@@H]2O[C@H](COP(=O)(O)OP(=O)(O)O[C@H]3O[C@H](CO)[C@@H](O)[C@H](O)[C@@H]3O)[C@@H](O)[C@H]2O)c(=O)[nH]1 | 75
* CC(=O)N[C@H]1[C@@H](OP(=O)(O)OP(=O)(O)OC[C@H]2O[C@@H](n3ccc(=O)[nH]c3=O)[C@H](O)[C@@H]2O)O[C@H](CO)[C@@H](O)[C@@H]1O | 246
* O=c1ccn([C@@H]2O[C@H](COP(=O)(O)OP(=O)(O)O[C@H]3OC[C@@H](O)[C@H](O)[C@H]3O)[C@@H](O)[C@H]2O)c(=O)[nH]1 | 1479

Provide value of cpm incorporated into oligosaccharide, Particulate Enzyme for this record tested with β1,2-xylosyltransferase: C[C@@H]1O[C@H](OP(=O)(O)OP(=O)(O)OC[C@H]2O[C@@H](n3cnc4c(=O)[nH]c(N)nc43)[C@H](O)[C@@H]2O)[C@@H](O)[C@H](O)[C@@H]1O
1033

Further, for CC(=O)N[C@H]1[C@@H](OP(=O)(O)OP(=O)(O)OC[C@H]2O[C@@H](n3ccc(=O)[nH]c3=O)[C@H](O)[C@@H]2O)O[C@H](CO)[C@H](O)[C@@H]1O ?
72

----------
# System: β1,2-xylosyltransferase
# test: Xylosyltransferase activity assay: transfer of 3H-xylose from UDP-[3H]xylose to oligosaccharide acceptor
# Format: biochemical, soybean
# details: 1 mM
readout kind: Effect of cation added to the purified enzyme (in words)

• [Co+2] = no stimulation
• [Hg+2] = strongly inhibitory
• [Pb+2] = strongly inhibitory
• [Cl-].[Cl-].[Mg+2] = slight stimulation
• [Ca+2] = no stimulation
• [Fe+2] = no stimulation
• [Cl][Mn][Cl] = slight stimulation

Entry [Fe+3] : reported Effect of cation added to the purified enzyme (in words) = ?
strongly inhibitory
